target of assay: Fes (UniProt P07332)
Sequence (P07332 whole entry, looked up): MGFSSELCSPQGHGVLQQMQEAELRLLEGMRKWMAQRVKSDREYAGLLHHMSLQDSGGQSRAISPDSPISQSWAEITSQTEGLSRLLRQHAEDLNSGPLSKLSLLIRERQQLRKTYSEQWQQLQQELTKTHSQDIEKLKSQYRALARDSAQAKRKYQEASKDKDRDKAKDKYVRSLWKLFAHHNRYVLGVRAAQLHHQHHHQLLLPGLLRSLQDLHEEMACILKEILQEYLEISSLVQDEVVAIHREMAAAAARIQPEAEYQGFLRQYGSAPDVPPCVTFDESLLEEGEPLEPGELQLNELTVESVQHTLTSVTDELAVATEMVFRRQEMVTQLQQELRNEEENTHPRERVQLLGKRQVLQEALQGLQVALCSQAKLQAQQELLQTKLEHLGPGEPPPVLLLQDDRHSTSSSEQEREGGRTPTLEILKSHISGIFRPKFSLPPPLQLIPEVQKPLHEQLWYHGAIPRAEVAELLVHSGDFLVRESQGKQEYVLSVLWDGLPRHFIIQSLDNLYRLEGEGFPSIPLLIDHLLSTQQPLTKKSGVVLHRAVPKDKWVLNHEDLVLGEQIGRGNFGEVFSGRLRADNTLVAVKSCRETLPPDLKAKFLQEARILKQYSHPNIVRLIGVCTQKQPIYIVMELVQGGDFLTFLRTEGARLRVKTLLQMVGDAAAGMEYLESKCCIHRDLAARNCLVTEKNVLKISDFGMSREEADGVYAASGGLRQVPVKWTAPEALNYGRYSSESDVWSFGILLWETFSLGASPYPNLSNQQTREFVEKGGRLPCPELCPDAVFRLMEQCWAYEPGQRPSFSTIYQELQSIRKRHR
run description: phosphorylation enrichment, bacterial display (enrichment ratio); higher = better substrate or ligand; peptides without Tyr show the background;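 further: 11-residue human phosphosite peptides and single-mutation variants displayed on the E. coli surface, counted by deep sequencing, each peptide's frequency after selection divided by its frequency in the unselected input library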;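 further: frequency after pTyr selection over input frequency; kinase dosed for 20-30% of maximal phosphorylation in three min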
# binarize phosphorylation enrichment: threshold 0.7 inclusive, high side t, low side f

Below, 5 sequences whose answers are already recorded.
1) PEADKYRLPYA [FGG_Y300_T303P]	t
2) AVLVQYYMEHH [PTPN11_Y80_E76V]	t
3) IHHIDYYKKTT [FGFR1_Y653]	t
4) LLKAGYHGVLR [TTPA_Y100]	t
5) RENGPYFASFP [GDAP2_Y487_T489A_YF]	t

Challenge: Quick check, phosphorylation enrichment >= 0.7? ENKGVYVPMSG [IVD_Y277_L279P]
Response given: f

Challenge: Quick check, phosphorylation enrichment >= 0.7? NRVEIYEKTVE [CYFIP1_Y108]
Response given: t

Challenge: Quick check, phosphorylation enrichment >= 0.7? `KPGVNYYFQVS`
Response given: t

Challenge: Quick check, phosphorylation enrichment >= 0.7? HRDSSYFWEIE [RAF1_Y340_Q335H_YF]
Response given: t

Challenge: Quick check, phosphorylation enrichment >= 0.7? RRGMPYGGHGD [TGM1_Y312_R315H]
Response given: f

Challenge: Quick check, phosphorylation enrichment >= 0.7? IMAYFYMCDSA [CASD1_Y382_R386S]
Response given: t

Challenge: Quick check, phosphorylation enrichment >= 0.7? LLVVLNKFRCF [PSEN1_Y154_Y154N_YF]
Response given: t

Challenge: Quick check, phosphorylation enrichment >= 0.7? LKEIRYPPFTD [ALDH3B2_Y362_H361R_YF]
Response given: t

Challenge: Quick check, phosphorylation enrichment >= 0.7? YPPDGYSRHYE [CTNND1_Y213]
Response given: f

Challenge: Quick check, phosphorylation enrichment >= 0.7? QDRTFYERVRT [SPEN_Y633_S635R_YF]
Response given: f

Challenge: Quick check, phosphorylation enrichment >= 0.7? PEVSGYCHCAD [TG_Y234]
Response given: t

Challenge: Quick check, phosphorylation enrichment >= 0.7? SHGKRYRVPSD [HHIPL2_Y395]
Response given: f

Challenge: Quick check, phosphorylation enrichment >= 0.7? MENFIYESMRY [CYP19A1_Y361]
Response given: t

Values from the supplement of paper PMC10065799
